Test system: Escherichia coli
Test: Antibacterial activity against Escherichia coli NIHJ assessed as growth inhibition after 24 hrs by plate dilution method
Assay type: functional
The reader will find reported MIC values listed item by item below.
measuredAttribute: MIC

# compound, measuredValue
rows = [
    ("O=c1[nH]cc(F)c(=O)[nH]1 [FLUOROURACIL]", "18.6 µM"),
    ("O=c1[nH]c(=O)n(C2CCCO2)cc1F (racemic) [TEGAFUR]", "> 1000 µM"),
    ("O=c1[nH]c(=O)n([C@@H]2CCCO2)cc1F", "> 1000 µM"),
    ("O=c1[nH]c(=O)n([C@H]2CCCO2)cc1F", "> 1000 µM"),
]
